// reported kon per item
- target-entity: T1, AD4 polypeptide (cloned AD4 fragment of CMV AD169 envelope glycoprotein B) (human cytomegalovirus strain AD169, UniProt P06473 112-438)
- T1 construct: also called antigenic domain 4
- assay-summary: SPR (Biacore T200), antibody captured on anti-human IgG CM5 chip, AD4 polypeptide as analyte, 1:1 model
reported-property: kon (M⁻¹ s⁻¹)

C5 (antibody, V domains shown, Human IgG, transiently expressed in HEK293) VH: QVQLQESGPGLVKPLETLSLTCTVSGGSISSGSFYWTWIRQHPGKGLEWIGYIHSSGTTYYNPSLKSRLNISRDTSKNQFTLKLSSVTAADTAVYYCAKEIIQWPRRWFDPWGQGTLVTVSS VL: QSMLTQPPSVSAAPGQKVIISCSGSSSNIGNNFVNWYQKFPGTAPKLLIYDNDKRPSGIPDRFSGSKSGTSATLGITGLQTGDEAEYYCGTWDSSLTAGVFGGGTTLTVLG = 721000
C15 (antibody, V domains shown, Human IgG, transiently expressed in HEK293) VH: EMQLLESGGGLVQPGGSLRVSCAASGFTFSSHAMSWVRQAPGKGLEWVSSISRSGDNTFYADSVKGRFTISRDNIKSTVYLQMNSLRAEDTAVYFCASRYTEGDSVWYFDVWGRGTLVTVSS VL: EVVLTQSPATLSVSAGDRATLSCRASQSVSRDLAWYQQKPGQAPRLLIYGASTRATDIPVRFSGSGSGTEFSLTISSLQSEDFAVYYCHQYKHWPRTFGQGTKVEIKR = 363000

FYI, the data here is from patent US20150110794A1.
